Experiment: Preliminary pharmacokinetics in SD rats
Format: in vivo
Conditions: male, SD, rat, plasma, iv, 2 mg/kg, SD rats, 2 mg/kg iv; read-out: AUC0–inf
Protocol: We administered BH by gavage and intravenous administration to SD rats (male, 200–220 g, n = 6) after they had fasted for 12 h. For oral gavage, the BH was dissolved in DMSO/0.5% CMC-Na (5/95, v/v/), and for intravenous administration, it was dissolved in DMSO/0.9% NaCl (5/95, v/v/), and then the blood samples were collected at intervals to determine the pharmacokinetic (PK) profiles of SD rats.
EXPERIMENTAL READOUT: AUC(0-inf)

COMPOUND STRUCTURE STRING	REPORTED
CC1=CC(=O)[C@@H](O)[C@]2(C)[C@H]3[C@@H](O)[C@H](O)[C@@]4(CO)OC[C@@]35[C@@H](C[C@@H]12)OC(=O)[C@H](O)[C@]54O	1050 ng·h/mL
